# IC50 annotations
target: HER2 YVMA (Homo sapiens, UniProt P04626, INS775YVMA); construct: expressed in transfected cells; host or cells: BaF3 (murine pro-B); test: BaF3 cell proliferation assay, HER2 YVMA (Table B); type: cell-based; conditions: potency code, 3 days, CellTiterGlo, read-out: HER2 YVMA (Activity for Inhibiting HER2)
Sequence (P04626 with tags, fused parts or gaps INS775YVMA): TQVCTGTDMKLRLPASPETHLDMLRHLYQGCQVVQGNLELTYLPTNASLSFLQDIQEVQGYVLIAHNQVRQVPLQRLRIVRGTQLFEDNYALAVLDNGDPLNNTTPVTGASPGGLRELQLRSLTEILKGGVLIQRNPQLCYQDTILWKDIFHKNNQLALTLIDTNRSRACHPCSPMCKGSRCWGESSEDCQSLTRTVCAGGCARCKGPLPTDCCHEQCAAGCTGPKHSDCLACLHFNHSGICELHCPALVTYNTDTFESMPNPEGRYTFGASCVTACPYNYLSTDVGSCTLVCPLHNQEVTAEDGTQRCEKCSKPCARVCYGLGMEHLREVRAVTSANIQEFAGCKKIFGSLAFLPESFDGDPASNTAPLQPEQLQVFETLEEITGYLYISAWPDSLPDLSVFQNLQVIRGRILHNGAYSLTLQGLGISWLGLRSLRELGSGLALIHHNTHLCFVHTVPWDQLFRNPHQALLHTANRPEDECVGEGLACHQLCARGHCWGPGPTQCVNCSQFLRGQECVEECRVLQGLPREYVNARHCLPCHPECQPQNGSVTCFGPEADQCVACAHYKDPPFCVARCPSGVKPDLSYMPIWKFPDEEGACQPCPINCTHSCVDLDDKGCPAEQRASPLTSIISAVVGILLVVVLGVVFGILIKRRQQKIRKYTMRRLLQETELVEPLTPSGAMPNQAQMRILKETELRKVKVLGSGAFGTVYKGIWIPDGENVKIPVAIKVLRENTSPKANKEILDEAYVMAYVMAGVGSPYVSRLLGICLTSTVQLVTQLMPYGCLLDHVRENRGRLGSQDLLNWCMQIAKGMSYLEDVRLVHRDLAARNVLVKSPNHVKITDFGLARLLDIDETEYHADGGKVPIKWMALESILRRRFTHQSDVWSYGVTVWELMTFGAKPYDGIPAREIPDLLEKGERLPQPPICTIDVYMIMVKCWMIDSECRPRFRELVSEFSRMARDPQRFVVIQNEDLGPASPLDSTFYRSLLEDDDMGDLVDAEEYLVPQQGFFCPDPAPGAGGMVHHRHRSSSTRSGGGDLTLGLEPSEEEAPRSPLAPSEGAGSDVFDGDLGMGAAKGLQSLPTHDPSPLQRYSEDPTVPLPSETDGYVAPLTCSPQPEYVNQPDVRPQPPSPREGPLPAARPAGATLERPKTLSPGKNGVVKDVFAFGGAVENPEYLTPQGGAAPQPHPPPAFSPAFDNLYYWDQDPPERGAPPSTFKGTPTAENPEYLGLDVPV

Some solved entries appear below for comparison.
[[record]]
compound = "C=CC(=O)Nc1cc2c(Nc3cc(Cl)c(OCc4cccc(F)c4)cc3F)ncnc2cc1OCCN1CC(OC)C1"
result = "300 to 500 nM"

[[record]]
compound = "C=CC(=O)Nc1cc2c(Nc3ccc(OCc4ccccn4)c(Cl)c3)ncnc2cc1OC1CC(N(C)C)C1 (stereo not shown)"
result = "30 to 50 nM"


Exercise: Record request: IC50 value, item C=CC(=O)Nc1cc2c(Nc3ccc(OCc4ccccn4)c(Cl)c3)ncnc2cc1OCCN1CCC(O)CC1
Key: 100 to 200 nM

Exercise: Note, next up: C=CC(=O)Nc1cc2c(Nc3ccc(OCc4cccc(F)c4)c(Cl)c3)ncnc2cc1OCCN1CCOCC1
Key: 30 to 50 nM

Exercise: Note, next up: CC#CC(=O)Nc1cc2c(Nc3ccc(Oc4ccccc4)cc3)ncnc2cc1C#C[C@@H]1[C@H]2CN(C)C[C@@H]12
Key: 500 to 1000 nM

Exercise: Note, next up: C=CC(=O)Nc1cc2c(Nc3ccc(OCc4cccc(C)n4)c(Cl)c3)ncnc2cc1OCCCN1CC(OC)C1
Key: 50 to 100 nM

Exercise: Note, next up: C=CC(=O)Nc1cc2c(Nc3ccc(OCc4cccc(C)n4)c(Cl)c3)ncnc2cc1O[C@@H]1CCN(C)C1
Key: 300 to 500 nM

* * *

molecular target: EGFR WT (Homo sapiens); assay: BaF3 cell proliferation assay, EGFR WT (Table A); format: cell-based; conditions: potency code, 3 days, CellTiterGlo, read-out: EGFR WT (Activity for Inhibiting EGFR)
pIC50: −log10 of the molar value.
experimental-readout: pIC50

Some solved entries appear below for comparison.
[[record]]
compound = "C=CC(=O)Nc1cc2c(Nc3ccc(OCc4cccc(F)n4)c(Cl)c3)ncnc2cc1OCCN1CCOCC1"
system_tested = "EGFR WT (Homo sapiens)"
result = "6.00 to 6.30"

[[record]]
compound = "C=CC(=O)Nc1cc2c(Nc3ccc(OCc4ccccn4)c(Cl)c3)ncnc2cc1OCC1(CN(C)C)CC1"
system_tested = "EGFR WT (Homo sapiens)"
result = "6.52 to 6.70"

[[record]]
compound = "C=CC(=O)Nc1cc2c(Nc3ccc(OCc4cccnn4)c(Cl)c3)ncnc2cc1OCCN1CCOCC1"
system_tested = "EGFR WT (Homo sapiens)"
result = "< 6.00"

[[record]]
compound = "C=CC(=O)Nc1cc2c(Nc3ccc(OCc4ccccn4)nc3)ncnc2cc1OCCN1CCOCC1"
system_tested = "EGFR WT (Homo sapiens)"
result = "6.00 to 6.30"

[[record]]
compound = "C=CC(=O)Nc1cc2c(Nc3ccc(OCc4ccccn4)c(Cl)c3)ncnc2cc1N1CC2CN(C)CC2C1 (stereo not shown)"
system_tested = "EGFR WT (Homo sapiens)"
result = "6.30 to 6.52"

[[record]]
compound = "C=CC(=O)Nc1cc2c(Nc3ccc(OCc4ccccn4)c(Cl)c3)ncnc2cc1OCC(C)(C)N(C)C"
system_tested = "EGFR WT (Homo sapiens)"
result = "6.30 to 6.52"


Next, consider the following compound.
Exercise: Record request: pIC50 value, item C=CC(=O)Nc1cc2c(Nc3ccc(OCc4ccccn4)cn3)ncnc2cc1OCCN1CCOCC1
Key: < 6.00

* * *

biological target: HER2 WT (Homo sapiens, UniProt P04626); assay: Activity for inhibiting HER2 (Table B), HER2 WT; assay type: cell-based; conditions: Table B; read-out: HER2 WT, potency code (IC50)
Sequence (P04626 23-1255): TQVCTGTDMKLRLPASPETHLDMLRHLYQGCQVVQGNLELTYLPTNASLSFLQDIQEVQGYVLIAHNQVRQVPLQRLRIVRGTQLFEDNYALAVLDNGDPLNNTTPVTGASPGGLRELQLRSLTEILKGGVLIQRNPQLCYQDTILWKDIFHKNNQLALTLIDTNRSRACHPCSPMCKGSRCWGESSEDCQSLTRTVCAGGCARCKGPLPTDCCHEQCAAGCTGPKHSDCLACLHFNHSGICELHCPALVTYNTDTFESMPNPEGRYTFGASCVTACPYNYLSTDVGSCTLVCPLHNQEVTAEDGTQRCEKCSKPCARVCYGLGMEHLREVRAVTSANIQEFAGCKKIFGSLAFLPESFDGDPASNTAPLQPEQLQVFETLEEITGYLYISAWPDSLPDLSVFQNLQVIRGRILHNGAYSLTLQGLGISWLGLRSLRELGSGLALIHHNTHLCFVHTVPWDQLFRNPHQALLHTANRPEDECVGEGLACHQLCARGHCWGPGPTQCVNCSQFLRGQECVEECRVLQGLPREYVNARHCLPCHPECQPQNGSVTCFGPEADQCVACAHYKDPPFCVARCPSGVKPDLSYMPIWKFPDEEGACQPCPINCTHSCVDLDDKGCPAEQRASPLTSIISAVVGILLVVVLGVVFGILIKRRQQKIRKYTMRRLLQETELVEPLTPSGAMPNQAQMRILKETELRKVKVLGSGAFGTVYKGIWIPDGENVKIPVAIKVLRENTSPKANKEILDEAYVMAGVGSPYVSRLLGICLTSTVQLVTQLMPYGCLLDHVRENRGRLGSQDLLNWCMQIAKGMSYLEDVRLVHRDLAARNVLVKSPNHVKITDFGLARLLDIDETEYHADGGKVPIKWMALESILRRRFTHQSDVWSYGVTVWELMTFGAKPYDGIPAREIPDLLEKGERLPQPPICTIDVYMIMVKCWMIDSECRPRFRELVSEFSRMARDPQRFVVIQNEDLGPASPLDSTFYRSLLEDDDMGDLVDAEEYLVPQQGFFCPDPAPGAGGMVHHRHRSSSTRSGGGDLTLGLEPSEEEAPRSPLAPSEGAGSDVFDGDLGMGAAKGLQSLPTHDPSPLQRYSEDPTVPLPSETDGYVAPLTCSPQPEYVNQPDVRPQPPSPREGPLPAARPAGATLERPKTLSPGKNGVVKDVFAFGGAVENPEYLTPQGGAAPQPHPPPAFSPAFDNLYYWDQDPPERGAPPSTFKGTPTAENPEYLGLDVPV
experimental-readout: IC50

[[record]]
compound = "CC#CC(=O)Nc1cc2c(Nc3ccc(OCc4ccccn4)c(Cl)c3)ncnc2cc1OCCN1CCOCC1"
result = "< 5 nM"

[[record]]
compound = "C=CC(=O)Nc1cc2c(Nc3ccc(OCc4ccccn4)c(Cl)c3)ncnc2cc1OCC1CCCN1C (stereo not drawn)"
result = "10 to 20 nM"

[[record]]
compound = "C=CC(=O)Nc1cc2c(Nc3ccc(OCc4ccccn4)c(Cl)c3)ncnc2cc1OCC1CCCN1 (stereo not drawn)"
result = "5 to 10 nM"


Exercise: Record request: IC50 value, item C=CC(=O)Nc1cc2c(Nc3ccc(OCc4ccccn4)c(Cl)c3)ncnc2cc1OCCN1CCOCC1
Key: 5 to 10 nM

Exercise: Note, next up: C=CC(=O)Nc1cc2c(Nc3ccc(OCc4ccccn4)c(Cl)c3)ncnc2cc1C#C[C@@H]1[C@H]2CN(C)C[C@@H]12
Key: 5 to 10 nM

Exercise: Note, next up: C=CC(=O)Nc1cc2c(Nc3ccc(Oc4ccc(C)nc4)c(C)c3)ncnc2cc1OC1CCN(C)C1 (stereo not drawn)
Key: 10 to 20 nM

Exercise: Note, next up: C=CC(=O)Nc1cc2c(Nc3ccc(OCc4ccccn4)c(Cl)c3)ncnc2cc1N(C)CCN1CCOCC1
Key: 100 to 200 nM

* * *

molecular target: EGFR WT (Homo sapiens, UniProt P00533); assay: BaF3 cell proliferation assay, EGFR WT (Table A); assay type: cell-based; settings: potency code, 3 days, CellTiterGlo, read-out: EGFR WT (Activity for Inhibiting EGFR)
Sequence (P00533 25-1210 N540K): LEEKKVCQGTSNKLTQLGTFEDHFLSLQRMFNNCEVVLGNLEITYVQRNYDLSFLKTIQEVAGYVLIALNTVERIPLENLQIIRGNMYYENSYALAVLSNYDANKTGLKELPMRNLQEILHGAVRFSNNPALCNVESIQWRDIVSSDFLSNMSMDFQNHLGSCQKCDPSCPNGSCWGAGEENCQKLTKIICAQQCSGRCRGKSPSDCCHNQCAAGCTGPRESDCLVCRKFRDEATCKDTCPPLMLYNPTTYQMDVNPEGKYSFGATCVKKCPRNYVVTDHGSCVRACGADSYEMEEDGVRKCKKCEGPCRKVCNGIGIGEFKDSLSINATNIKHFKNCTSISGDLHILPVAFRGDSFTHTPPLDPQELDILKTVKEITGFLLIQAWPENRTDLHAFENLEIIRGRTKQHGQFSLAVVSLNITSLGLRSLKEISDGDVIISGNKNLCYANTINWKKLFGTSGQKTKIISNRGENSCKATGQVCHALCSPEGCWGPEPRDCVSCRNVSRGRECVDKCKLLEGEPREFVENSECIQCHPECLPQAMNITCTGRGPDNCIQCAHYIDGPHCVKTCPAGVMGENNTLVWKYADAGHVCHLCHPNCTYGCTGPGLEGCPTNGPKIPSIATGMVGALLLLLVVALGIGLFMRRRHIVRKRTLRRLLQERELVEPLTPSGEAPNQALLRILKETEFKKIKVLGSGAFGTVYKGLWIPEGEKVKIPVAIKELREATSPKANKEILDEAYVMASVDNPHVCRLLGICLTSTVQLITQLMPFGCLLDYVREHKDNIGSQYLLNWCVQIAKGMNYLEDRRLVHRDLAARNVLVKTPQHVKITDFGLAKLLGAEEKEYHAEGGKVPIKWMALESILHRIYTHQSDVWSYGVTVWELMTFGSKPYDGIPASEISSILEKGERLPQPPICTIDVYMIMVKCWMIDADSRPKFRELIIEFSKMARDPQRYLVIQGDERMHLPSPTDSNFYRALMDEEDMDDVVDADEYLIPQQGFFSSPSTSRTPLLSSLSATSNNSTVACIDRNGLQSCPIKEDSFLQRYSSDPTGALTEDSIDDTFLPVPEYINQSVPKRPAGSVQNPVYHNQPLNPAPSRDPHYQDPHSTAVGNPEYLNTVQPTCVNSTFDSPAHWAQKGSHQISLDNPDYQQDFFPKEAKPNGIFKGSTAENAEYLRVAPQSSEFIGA
experimental-readout: IC50

Some solved entries appear below for comparison.
[[record]]
molecule = "C=CC(=O)Nc1cc2c(Nc3ccc(OCc4ccccn4)nc3)ncnc2cc1O[C@@H]1CCN(C)C1"
result = "> 1000 nM"

[[record]]
molecule = "C=CC(=O)Nc1cc2c(Nc3ccc(OCc4ccccn4)c(Cl)c3)ncnc2cc1N1CC2CCN(C)C2C1 (stereo not shown)"
result = "> 1000 nM"

[[record]]
molecule = "C=CC(=O)Nc1cc2c(Nc3cc(Cl)c(OCc4cccc(F)c4)cc3F)ncnc2cc1OCCN1CC(OC)C1"
result = "200 to 300 nM"

[[record]]
molecule = "C=CC(=O)Nc1cc2c(Nc3ccc(OCc4ccccn4)c(Cl)c3)ncnc2cc1C#C[C@H]1CCN(C)C1"
result = "200 to 300 nM"

[[record]]
molecule = "C=CC(=O)Nc1cc2c(Nc3ccc(OCc4ccccn4)c(Cl)c3)ncnc2cc1OC1CN(C)C1"
result = "500 to 1000 nM"


Exercise: Record request: IC50 value, item C=CC(=O)Nc1cc2c(Nc3ccc(OCc4cccnn4)c(Cl)c3)ncnc2cc1OCCN1CC2CCC(C1)O2
Key: > 1000 nM

Exercise: Note, next up: C=CC(=O)Nc1cc2c(Nc3ccc(OCc4ccccn4)c(Cl)c3)ncnc2cc1OCCN(C)C1CC1
Key: > 1000 nM

* * *

Target: HER2 S310F (Homo sapiens, UniProt P04626, S310F)
Construct: expressed in transfected cells; host or cells: BaF3 (murine pro-B)
Sequence (P04626 23-1255 S310F): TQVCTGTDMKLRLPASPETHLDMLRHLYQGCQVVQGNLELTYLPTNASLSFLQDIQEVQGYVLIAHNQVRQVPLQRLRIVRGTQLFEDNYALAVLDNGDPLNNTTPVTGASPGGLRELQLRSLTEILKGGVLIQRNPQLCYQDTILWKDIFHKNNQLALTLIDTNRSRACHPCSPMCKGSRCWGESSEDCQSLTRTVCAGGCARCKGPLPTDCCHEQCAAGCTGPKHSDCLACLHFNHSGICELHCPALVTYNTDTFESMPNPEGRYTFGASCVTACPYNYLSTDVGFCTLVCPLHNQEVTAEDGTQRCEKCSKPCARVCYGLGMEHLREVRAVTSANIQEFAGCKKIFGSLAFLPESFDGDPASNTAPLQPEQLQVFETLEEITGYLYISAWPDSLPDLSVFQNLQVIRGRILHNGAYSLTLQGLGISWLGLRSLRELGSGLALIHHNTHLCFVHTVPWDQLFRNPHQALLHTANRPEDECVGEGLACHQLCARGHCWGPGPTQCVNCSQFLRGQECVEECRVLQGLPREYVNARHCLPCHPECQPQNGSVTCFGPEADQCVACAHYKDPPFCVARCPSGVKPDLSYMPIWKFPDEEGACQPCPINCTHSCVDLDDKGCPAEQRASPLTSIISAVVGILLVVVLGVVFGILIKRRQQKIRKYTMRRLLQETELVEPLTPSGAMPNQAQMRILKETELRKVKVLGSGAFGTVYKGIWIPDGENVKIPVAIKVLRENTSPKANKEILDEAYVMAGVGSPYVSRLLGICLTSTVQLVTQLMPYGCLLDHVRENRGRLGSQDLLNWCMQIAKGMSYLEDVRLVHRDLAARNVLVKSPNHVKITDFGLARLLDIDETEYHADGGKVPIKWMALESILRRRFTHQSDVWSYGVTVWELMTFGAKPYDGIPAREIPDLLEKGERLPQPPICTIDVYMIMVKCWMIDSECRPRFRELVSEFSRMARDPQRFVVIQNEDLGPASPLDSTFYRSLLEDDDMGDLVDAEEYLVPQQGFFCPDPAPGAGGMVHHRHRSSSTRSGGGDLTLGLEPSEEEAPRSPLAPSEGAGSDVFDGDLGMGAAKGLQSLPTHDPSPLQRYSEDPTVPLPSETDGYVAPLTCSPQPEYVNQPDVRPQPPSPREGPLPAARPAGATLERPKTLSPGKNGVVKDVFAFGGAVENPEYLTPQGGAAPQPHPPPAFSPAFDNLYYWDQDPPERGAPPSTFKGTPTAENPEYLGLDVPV
Assay: Activity for inhibiting HER2 (Table B), HER2 S310F
Format: cell-based
Details: read-out: HER2 S310F, potency code (IC50)
Method: EC50 values were determined with the same application.
# IC50 annotations

Some solved entries appear below for comparison.
[[record]]
molecule = "C=CC(=O)Nc1cc2c(Nc3ccc(OCc4cccnn4)c(Cl)c3)ncnc2cc1OCCN1CC(OC)C1"
system_tested = "HER2 S310F (Homo sapiens, UniProt P04626, S310F)"
experimental_readout = "IC50"
result = "50 to 100 nM"

[[record]]
molecule = "C=CC(=O)Nc1cc2c(Nc3ccc(OCc4ccccn4)c(Cl)c3)ncnc2cc1OCCN1CCC1"
system_tested = "HER2 S310F (Homo sapiens, UniProt P04626, S310F)"
experimental_readout = "IC50"
result = "10 to 20 nM"

[[record]]
molecule = "C=CC(=O)Nc1cc2c(Nc3ccc(Oc4ccc(C)nc4)c(C)c3)ncnc2cc1C#CC(C)(C)N(C)C"
system_tested = "HER2 S310F (Homo sapiens, UniProt P04626, S310F)"
experimental_readout = "IC50"
result = "50 to 100 nM"

[[record]]
molecule = "C=CC(=O)Nc1cc2c(Nc3ccc(OCc4ccccn4)c(Cl)c3)ncnc2cc1OCCN1CC(F)C1"
system_tested = "HER2 S310F (Homo sapiens, UniProt P04626, S310F)"
experimental_readout = "IC50"
result = "10 to 20 nM"

[[record]]
molecule = "C=CC(=O)Nc1cc2c(Nc3ccc(OCc4ccccn4)c(Cl)c3)ncnc2cc1OCCN1CC2(CN(C)C2)C1"
system_tested = "HER2 S310F (Homo sapiens, UniProt P04626, S310F)"
experimental_readout = "IC50"
result = "50 to 100 nM"

[[record]]
molecule = "C=CC(=O)Nc1cc2c(Nc3ccc(OCc4ccccn4)c(Cl)c3)ncnc2cc1OC1CC(N(C)C)C1 (centres unmarked)"
system_tested = "HER2 S310F (Homo sapiens, UniProt P04626, S310F)"
experimental_readout = "IC50"
result = "5 to 10 nM"

[[record]]
molecule = "C=CC(=O)Nc1cc2c(Nc3ccc(OCc4cnccn4)c(Cl)c3)ncnc2cc1OCCCN1CCOCC1"
system_tested = "HER2 S310F (Homo sapiens, UniProt P04626, S310F)"
experimental_readout = "IC50"
result = "10 to 20 nM"

[[record]]
molecule = "C=CC(=O)Nc1cc2c(Nc3ccc(OCc4ccccn4)c(Cl)c3)ncnc2cc1OCCCN1CCCC1"
system_tested = "HER2 S310F (Homo sapiens, UniProt P04626, S310F)"
experimental_readout = "IC50"
result = "5 to 10 nM"


Exercise: Record request: IC50 value, item C=CC(=O)Nc1cc2c(Nc3ccc(OCc4ccccn4)c(Cl)c3)ncnc2cc1N1CCC(N(C)C)CC1
Key: 50 to 100 nM

Exercise: Note, next up: C=CC(=O)Nc1cc2c(Nc3ccc(OCc4cccc(F)c4)c(Cl)c3)ncnc2cc1N(C)CCN(C)C
Key: 500 to 1000 nM

Exercise: Note, next up: C=CC(=O)Nc1cc2c(Nc3ccc(OCc4ccccn4)c(Cl)c3)ncnc2cc1OCCN1CCCC1
Key: 10 to 20 nM

Exercise: Note, next up: C=CC(=O)Nc1cc2c(Nc3ccc(OCc4cccc(F)n4)c(Cl)c3)ncnc2cc1OCCN1CCN(C)CC1
Key: 30 to 50 nM

Exercise: Note, next up: C=CC(=O)Nc1cc2c(Nc3ccc(OCc4ccccn4)c(Cl)c3)ncnc2cc1OCCCN1CC(OC)C1
Key: 10 to 20 nM

Exercise: Note, next up: C=CC(=O)Nc1cc2c(Nc3ccc(OCc4cccc(C)n4)c(Cl)c3)ncnc2cc1OCCN1CCOCC1
Key: 100 to 200 nM

Exercise: Note, next up: CC#CC(=O)Nc1cc2c(Nc3ccc(OCc4ccccn4)c(Cl)c3)ncnc2cc1OCCN1CCOCC1
Key: < 5 nM

Exercise: Note, next up: CC#CC(=O)Nc1cc2c(Nc3cc(Cl)c(OCc4cccc(F)c4)cc3F)ncnc2cc1OCCCN1CCOCC1
Key: 10 to 20 nM

Exercise: Note, next up: C=CC(=O)Nc1cc2c(Nc3ccc(OCc4ccccn4)c(Cl)c3)ncnc2cc1OCCN(C)C1CCOC1 (centres unmarked)
Key: 20 to 30 nM

Exercise: Note, next up: C=CC(=O)Nc1cc2c(Nc3ccc(OCc4ccccn4)c(Cl)c3)ncnc2cc1OC1CN(C)C1
Key: 10 to 20 nM

Exercise: Note, next up: C=CC(=O)Nc1cc2c(Nc3ccc(OCc4ccccn4)c(Cl)c3)ncnc2cc1OCC1(N(C)C)CC1
Key: 20 to 30 nM

Exercise: Note, next up: C=CC(=O)Nc1cc2c(Nc3ccc(OCc4cccc(F)n4)c(Cl)c3)ncnc2cc1OCCCN1C[C@H]2C[C@@H]1CO2
Key: 30 to 50 nM

Exercise: Note, next up: C=CC(=O)Nc1cc2c(Nc3ccc(OCc4cccc(F)n4)c(Cl)c3)ncnc2cc1OCCN1CC(OC)C1
Key: 30 to 50 nM

Exercise: Note, next up: C=CC(=O)Nc1cc2c(Nc3ccc(OCc4cccnn4)c(Cl)c3)ncnc2cc1OCCN1CCOCC1
Key: 50 to 100 nM

Exercise: Note, next up: C=CC(=O)Nc1cc2c(Nc3ccc(OCc4ccccn4)c(Cl)c3)ncnc2cc1OCC1CCCN1 (centres unmarked)
Key: 30 to 50 nM

Exercise: Note, next up: C=CC(=O)Nc1cc2c(Nc3ccc(OCc4cccc(F)c4)c(Cl)c3)ncnc2cc1OCCCN1CC(OC)C1
Key: 30 to 50 nM

Exercise: Note, next up: C=CC(=O)Nc1cc2c(Nc3ccc(OCc4cnccn4)c(Cl)c3)ncnc2cc1OCCN1CCN(C)CC1
Key: 20 to 30 nM

Exercise: Note, next up: C=CC(=O)Nc1cc2c(Nc3ccc(OCc4cccc(F)c4)c(Cl)c3)ncnc2cc1OCCN1CCN(C)CC1
Key: 30 to 50 nM

The origin of these recorded values is patent US11034672B1.
